Hello, the source for this data is PubChem BioAssay (NCI), in case you need it.

- Test system: CAKI-1 renal
- METHOD_DESCRIPTION: NCI tumour cell line growth inhibition, 48 h
Entries and their TGI values follow.
Numeric answer only, unit µM assumed.

O=C(N/N=C/c1ccc([N+](=O)[O-])cc1)c1ccc2nc(-c3ccc(Cl)cc3)[nH]c2c1 = 16.1
O=C(Nc1ccc(Cl)cc1)c1cc(-c2ccc(Cl)cc2)c2sc(=O)[nH]c2n1 = 13.1
CCc1ccc2[nH]c(O)c(-c3[nH]c4ccccc4c3N=O)c2c1 = 19.8

Now examine the next entry.
The recorded TGI for entry `c1cn2cc(-c3ccc4cn[nH]c4c3)nc(Nc3ccc(N4CCOCC4)cc3)c2n1` equals 44.3

* * *

- Tested on: HL-60(TB) leukemia
- METHOD_DESCRIPTION: NCI tumour cell line growth inhibition, 48 h
TGI overview

Past entries and their recorded results:
NS(=O)(=O)c1cccc(N=Cc2c(O)[nH]c3ccccc23)c1 = > 25 µM
CN(C)Cc1cc(O)c(O)c(CN(C)C)c1 = 92 µM
O=C(Cc1cccc(OC(F)(F)F)c1)Nc1ccc(CCCCc2nnc(NC(=O)Cc3ccccn3)s2)nn1 = > 100 µM
COP(=O)(OC)C(Cc1c[nH]c2ccccc12)NC(=O)OCc1ccccc1 (stereo unspecified) = > 100 µM
Cc1nc2ccc(S(=O)(=O)O)cc2c(=O)n1-c1ccc(C(=O)NN2C(=O)C(Cl)C2c2ccccc2O)cc1 (stereo unspecified) = > 100 µM
[N-]=[N+]=CC(=O)OCC1SCCCS1 = > 100 µM

Lab book: TGI of `NC(=O)c1ccc2c(c1)S(=O)(=O)c1ccccc1C2=O` noted as > 100 µM

Entry under test: `COc1ccc(/C=C/C(=O)Oc2cc(O)cc(O)c2)cc1` . Its TGI was 55.5 µM

Reported TGI for Fc1ccc(C2SCc3nc4ccccc4n32)cc1 (stereo unspecified) was 71.8 µM

response.value for `COc1ccc2c(c1)C(=O)/C(=C/c1ncc([N+](=O)[O-])n1C)O2` (field: TGI) = 1.37 µM

TGI measured on CN1CC(C(=O)C2C(=O)c3ccccc3C2=O)C(=O)C(=O)C(C(=O)C2C(=O)c3ccccc3C2=O)C1 (stereo unspecified) = > 100 µM

* * *

- System: HS 578T breast
- METHOD_DESCRIPTION: NCI tumour cell line growth inhibition, 48 h
*1 amine or outer side, *2 acyl side, *3 side chain or, on linkers, in order; H or OH if unused. Where a SMILES comes first, the peptide text is derived from it. Bridges are numbered along the chain shown (N, C = ends). Roman numbers before positions name the chains, in order. [ ]: non-standard residue; d: D form. Actinocin(9to1) = Cc1c2oc3c(C)ccc(C(=O)[*:1])c3nc-2c(C(=O)[*:2])c(N)c1=O; NMeV = CN[CH](C(=O)O)C(C)C; Sar = CNCC(=O)O
READOUT_NAME: TGI (µM)
Numeric only. Scale: µM

CCCCc1ccc(Nc2ncc3[nH]cnc3n2)cc1 = 33.9
Cc1c2oc3c(C)ccc(C(=O)NC4C(=O)NC(C(C)O)C(=O)N5CCCC5C(=O)N(C)CC(=O)N(C)C(C(C)C)C(=O)OC4C)c3nc-2c(C(=O)NC2C(=O)NC(C(C)O)C(=O)N3CCCC3C(=O)N(C)CC(=O)N(C)C(C(C)C)C(=O)OC2C)c(N)c1=O (stereo unspecified) (I: TTP[Sar][NMeV] / II: TTP[Sar][NMeV]; ester I:1-I:C, II:1-II:C; linker I:N-II:N via Actinocin(9to1); configuration not given here) = 72
O=c1[nH]nc(-c2ccccc2)n1/N=C/c1c(O)ccc2ccccc12 = 50.4

Let us move to another entry and its TGI.
The recorded TGI with HS 578T breast for `CCCCCCCCCCCCSC(=N)N` was 38.8
